Hey, just so you know, these numbers are from PubChem BioAssay AID489023.

System: 697B cells, BCR-induced NF-kB luciferase reporter luminescence
METHOD NOTES: inhibitors of BCR-induced NF-kB activation, dose response, 697B cells, luciferase luminescence (AID 489023)
Active and inactive are the calls of the source. No rule for the calls is given here.
Allowed answers: active, inactive

Each compound tested received a call. Report the one for CCOC(=O)N1CCN(CC(=O)Nc2ccc([N+](=O)[O-])cc2C(=O)Nc2ccccc2F)CC1 .
inactive

Identify the outcome logged in this assay for the compound shown: CCOC(=O)c1sc(NC(=O)c2cc(-c3ccccc3C)nc3ccccc23)c(C#N)c1C
active

Dear all, I need the recorded test outcome for CCn1c(=O)c2cc(C(=O)NC(C)C)sc2c2ccccc21 , thank you.
inactive

Status in this test for Cc1cc(OCC(=O)Nc2ccc(CCO)cc2)c2c(C)c(C)c(=O)oc2c1 ?
inactive

Assay outcome for COc1ccc(C(=O)N/N=C/c2ccc(OC)c(CN3CCCc4ccccc43)c2)cc1 : what was it?
inactive

Tell me the recorded outcome of this test for CCC(=O)N1c2ccccc2C(N(C(C)=O)c2ccccc2)CC1C (stereo unspecified) .
inactive

Which outcome was assigned to CC1CCc2c(sc3nc(C(C)(C)C)nc(N4CCN(C(=O)CCl)CC4)c23)C1 (stereo unspecified) in this test?
active

How was COC(=O)[C@@]12OC[C@]34[C@H]([C@@H](O)[C@@H]1O)[C@@]1(C)C(=O)C(O[C@@H]5OC(CO)[C@@H](O)[C@@H](O)[C@@H]5O)=C[C@@H](C)[C@@H]1C[C@H]3OC(=O)[C@H](OC(=O)/C=C(\C)C(C)(C)OC(C)=O)[C@@H]24 (stereo partly specified) classified in this test?
active

For this compound, state the assay outcome: CCn1c(CN2CCN(c3ccc(Cl)cc3)CC2)nc2ccccc21
inactive

Assay result, entry Cc1ccc2nc(NC(=O)CSCC(=O)OCC(=O)c3ccc(Br)cc3)sc2c1 — outcome?
active

For this compound, state the assay outcome: COc1ccccc1/C=C1\SC(=S)N(CCC(=O)Nc2cc(C)on2)C1=O
inactive

Could you kindly confirm the outcome this assay logged for COc1cc(-c2[nH]nc3c2C(c2ccco2)C(C#N)=C(N)O3)cc(OC)c1OC (stereo unspecified) ?
inactive

Fill in: this test's call for CCn1c(=O)cc(OCC(=O)Nc2ccc(OC)c(OC)c2)c2ccccc21 is ___
inactive

GET /call?item= CCOc1ccc(NC(=O)CCCc2cc(-c3ccc(OCC)cc3)on2)cc1 returns the recorded outcome of this test.
active

Hi team, can someone confirm the assay call for Cc1ccc(O)c(NC(=O)COc2cc(C)ccc2C)c1 ?
inactive

Hello, I am checking results. What call was entered for CN(C)C(=O)CCc1nc(-c2ccc(C(C)(C)C)cc2)no1 ?
active

Returns: the outcome recorded for CCN1C(=O)c2cccc3c(S(=O)(=O)Nc4ccccc4)ccc1c23 in this assay.
inactive

Could you please tell me the result logged for Cn1c(=O)cc(OCCCC(=O)NCc2ccccn2)c2ccccc21 in this assay?
inactive

What classification did C[C@H]1CCC/C=C/[C@@H]2C[C@H](O)C[C@H]2[C@H](O)/C=C/C(=O)O1 end up with in this test?
inactive

Hi team, can someone confirm the assay call for CC(C)Cn1c([N+](=O)[O-])nc2c1c(=O)[nH]c(=O)n2C ?
active

====

System: 697B cells, BCR-induced NF-kB luciferase reporter luminescence
METHOD NOTES: inhibitors of BCR-induced NF-kB activation, dose response, 697B cells, luciferase luminescence (AID 489023)
Active and inactive are the calls of the source. How the calls were made is not given here.
Mark one answer only. Choices: active, inactive

For orientation, consider the following solved cases.
>>> df
                                   molecule  discrete_label
0  Cn1c(=O)cc(OCC(=O)N2CCC3(CC2)OCCO3)c2ccccc21        inactive
1  O=C(CN1C(=O)c2ccccc2S1(=O)=O)c1ccc(Cl)cc1Cl          active
2  Cc1ccc(-n2c(-c3ccccc3)c[n+]3c2CCc2ccccc2-3)c(C)c1        inactive
3  CCN(CC(=O)Nc1c(F)cccc1F)C(=O)c1cc(S(=O)(=O)N(CC)CC)ccc1N1CCCCC1          active
4  CCC(C)(C)c1ccc(OCCCC[n+]2ccccc2)c(C(C)(C)CC)c1          active

// param item: CCN(CC(=O)Nc1c(F)cccc1F)C(=O)C1(c2ccccc2)CC1 ; yields the recorded call
active

Hello, I am checking results. What call was entered for CC1=CC(C)(C)Nc2ccc(OC(=O)C(Cc3ccccc3)N3C(=O)c4ccccc4C3=O)cc21 (stereo not given) ?
inactive

Please state the recorded outcome for this molecule: CCOc1ccc(S(=O)(=O)NCc2ccncc2)cc1NC(=O)c1ccccc1
inactive

Field: outcome | Entry: CCc1cccc(NC(=O)c2ccc(CNc3c(N4CCCC4)c(=O)c3=O)cc2)c1
inactive

For this molecule, state the assay outcome: COc1ccccc1/C=C1/SC(=S)N(CCC(=O)Nc2cccnc2)C1=O
active
